Reference source for all entries: PubChem BioAssay (NCI)

system: HCT-116 colon; assay: NCI tumour cell line growth inhibition, 48 h; in the data active means GI50 below about 0.43 µM; inactive means the rest
Permitted responses: class 1 for active, class 0 for inactive

The following compounds have reported results that may help.
>>> answer_label("N#Cc1c(-c2ccccc2)cc(-c2ccccc2)n(CC(=O)NO)c1=O")
"class 0"
>>> answer_label("COC1=CC(c2ccc[nH]2)=N/C1=C\\c1[nH]c(C)c(C(=O)CCCCC(=O)NCc2ccccc2)c1C")
"class 0"
>>> answer_label("COCC(=O)Oc1cc(-c2ccc(C)cc2C)c(OC(=O)COC)c(-c2ccc(C)cc2C)c1")
"class 0"

Q: Assay outcome for Cc1cc(C)c(-c2cc(O)c(-c3c(C)cc(C)cc3C)cc2O)c(C)c1 : what was it?
Result: class 0

Q: Write down the call the test reported for this compound. Item: CC(C)(C)c1ccc(C(=O)Nc2sc3c(c2C#N)CCC(=O)C3)cc1
Result: class 1

Q: Status in this test for [O-]c1ccccc1/C=N/c1nccs1.[O-]c1ccccc1/C=N/c1nccs1.[O]=[U+2]=[O] ?
Result: class 0

====

system: OVCAR-4 ovarian; assay: NCI tumour cell line growth inhibition, 48 h
GI50 listing for selected compounds.

Consider the reported GI50 for these compounds:
>>> result("CNc1ccc(C(=O)CC(O)CCC(C)C2OC(=O)CC(O)CC(=O)CC(O)CC(O)CC(O)CC(O)CC3(O)CC(O)C(C(=O)NCCN(C)C)C(CC(OC4OC(C)C(O)C(NC(=O)CN5CCN(CCO)CC5)C4O)/C=C/C=C/C=C/C=C\\C=C/C=C/C=C/C2C)O3)cc1 (centres undefined)")
"1.65 µM"
>>> result("CC(C)(C)c1ccc(C(=O)Nc2sc3c(c2C#N)CCC(=O)C3)cc1")
"0.223 µM"
>>> result("FC(F)(F)c1ccc(-c2cnc(Cl)nc2NC2CCCCCC2)cc1")
"38.7 µM"
>>> result("COc1cc(C2=NNC(c3ccc(N(C)C)cc3)C2)cc(OC)c1OC (centres undefined)")
"16.9 µM"
>>> result("CCC(Cc1cnc2nc(N)nc(N)c2n1)c1ccc(C(=O)NC(CCC(=O)O)C(=O)O)cc1 (centres undefined)")
"> 100 µM"

Q: Tell me its GI50 given COc1ccc(C2CC(c3cc(Cl)c(C)cc3O)=NN2c2ccc(S(N)(=O)=O)cc2)cc1OC (centres undefined) as the entry.
Result: 4.18 µM

Q: Tell us which GI50 value is on record for Cc1cc2c([nH]1)CSc1cc(S(=O)(=O)c3ccccc3)c(=O)[nH]c1-2
Result: 0.553 µM

Q: Please report GI50 for the following compound: O=S1CCN(Cc2ccc(-c3ccc4ncnc(Nc5ccc(OCc6cccc(F)c6)c(Cl)c5)c4c3)o2)CC1
Result: 5.26 µM

Q: Return reported GI50. Input compound: COc1ccc(Nc2nccc(Nc3ccc4[nH]ncc4c3)n2)cc1
Result: 2.99 µM

Q: Provide measured GI50 value, entry: Nc1cc2c([nH]c[n+]2CC#CCCl)c(SCC#CCCl)n1
Result: 1.57 µM

Q: Write down GI50 measured for item O=S1CCN(Cc2ccc(-c3ccc4ncnc(Nc5ccc(OCc6ccccc6)c(Cl)c5)c4c3)o2)CC1
Result: 13.5 µM

Q: # return recorded GI50 for input Cc1cc(-c2ncc(-c3cccnc3)cc2/C=C/c2ccccc2)cnc1-c1cccnc1
Result: > 21.1 µM

Q: # return recorded GI50 for entry COc1ccc(CCn2c3c(c4c(O)cccc42)C(=O)c2ccccc2-3)cc1OC
Result: 71.8 µM

Q: # return recorded GI50 for entry COc1ccc(/C=C(\C#N)c2ccc(OC)cc2)cc1
Result: 27.4 µM

====

test system: HOP-92 NSCLC; experiment: NCI tumour cell line growth inhibition, 48 h
Measured GI50 of individual entries

Q: Quick one: give measured GI50 for CC(=O)c1nc2ccccc2n1CCN1CCN(C)CC1
Result: 0.416 µM

Q: Tell me GI50 reported for Cc1cc2c([nH]1)CSc1cc(S(=O)(=O)c3ccccc3)c(=O)[nH]c1-2
Result: 0.139 µM

Q: State, in one line, measured GI50 of Cc1cccc2c(C(=O)O[C@H](C(N)=O)[C@]3(C)CO3)cccc12
Result: 2.28 µM

Q: Read the entry COc1cc(-c2n[nH]nc2-c2ccc3c(c2)OCCO3)cc(OC)c1OC and write its reported GI50.
Result: < 0.01 µM

Q: Identify the reported GI50 for the following entry. COc1cc(-c2nc3ccc(C)cc3[nH]2)ccc1OCC(=O)N=Nc1c(O)[nH]c2ccc(Cl)cc12
Result: 1.91 µM

Q: Give reported GI50 value for Nc1cc2c([nH]c[n+]2CC#CCCl)c(SCC#CCCl)n1
Result: 1.84 µM

Q: Provide GI50 value for the following compound: COC1=CC(c2ccc[nH]2)=N/C1=C\c1[nH]c(C)c(C(=O)CCCCC(=O)NCc2ccccc2)c1C
Result: 1.65 µM

Q: Item Cc1ccc(-c2c(C#N)[n+](=O)c3cc(Cl)c(Cl)cc3n2[O-])cc1 : provide GI50
Result: 6 µM

Q: Fill in reported GI50 for this entry: COc1cc(-c2nc3ccccc3s2)ccc1OCCCCCOc1cc2c(cc1OC)C(=O)N1CCC[C@H]1C=N2
Result: 0.1 µM

====

tested on: NCI/ADR-RES ovarian; assay: NCI tumour cell line growth inhibition, 48 h
# TGI annotations

Recorded TGI, per entry:
>>> result("COc1cc2oc3c(c(=O)c2c(O)c1/C=C/C(C)C)CCC(C)(C)Oc1cc(O)ccc1-3")
"39.3 µM"
>>> result("COc1ccc2nc(NNC(=O)c3cnccn3)c3cccn3c2c1")
"2.09 µM"
>>> result("O=C(NCCc1[nH]nc2c1C(=O)C=C(Nc1ccccc1)C2=O)OCc1ccccc1")
"> 100 µM"

Q: Give the value of TGI reported for the following: N#CCCN(CCCN(C(=O)N(c1ccccc1)c1ccccc1)c1ccccc1)C(=O)Nc1ccccc1
Result: > 100 µM

Q: Please report the measured TGI for N#C/C(=C\c1cc(F)cc(F)c1)c1ccccn1
Result: 66.9 µM

Q: Look up TGI of CC(C)CCNc1ncnc2[nH]ncc12 and report it.
Result: > 100 µM

====

system: BT-549 breast; assay: NCI tumour cell line growth inhibition, 48 h
Here, each record is paired with measured GI50 data.

Known results for molecules:
>>> result("COCC(=O)Oc1cc(-c2ccc(C)cc2C)c(OC(=O)COC)c(-c2ccc(C)cc2C)c1")
"7.7 µM"
>>> result("COc1ccc(/C=C(\\C#N)c2ccc(OC)cc2)cc1")
"22.9 µM"

Continue with the next molecule.
Q: Consider the molecule COc1ccc2c(c1)C(=O)c1c-2n(CCCCl)c(=O)c2cc(OC)c(OC)cc12 and give its recorded GI50.
Result: > 100 µM

====

system: NCI-H522 lung; test: NCI tumour cell line growth inhibition, 48 h
Below is a list of entries, each paired with its recorded log10 of TGI value.
On a log10 scale: recorded TGI, unit µM.

Examples with their reported log10 of TGI follow.
>>> recorded_number("CCCCCCCCc1ccc(OCCOCC[N+](C)(C)CC)cc1 (tested in a mixture with another compound)")
0.99
>>> recorded_number("CS(=O)(=O)N1CC(CI)c2ccc(O)cc21 (stereo not drawn)")
0.48
>>> recorded_number("COCC(=O)Oc1cc(-c2ccc(C)cc2C)c(OC(=O)COC)c(-c2ccc(C)cc2C)c1")
1.26
>>> recorded_number("Cc1cc(-c2ncc(-c3cccnc3)cc2/C=C/c2ccccc2)cnc1-c1cccnc1")
1.17
>>> recorded_number("C=C(C)C(=O)Oc1ccc(N=Nc2ccc(C)cc2)ccc1=O")
1.26
>>> recorded_number("C=C1CC(Cn2ccc(=O)[nH]c2=O)(c2ccc(OC)cc2)OC1=O (stereo not drawn)")
0.64

Q: Tell me measured log10 of TGI for O=C(O)CNC(=O)C(CSC(=O)OCC1c2ccccc2-c2ccccc21)NC(=O)CCC(NC(=O)OCC1c2ccccc2-c2ccccc21)C(=O)O (stereo not drawn) please.
Result: 0.55

Q: Please report the measured log10 of TGI for CN(C)CCn1nc2c3c(c(C(=O)NCCCN(C)CCCNC(=O)c4ccc5c6c(nn5CCN(C)C)-c5ccccc5Nc46)ccc31)Nc1ccccc1-2
Result: -0.93

Q: Identify log10 of TGI associated with the molecule O=S1CCN(Cc2ccc(-c3ccc4ncnc(Nc5ccc(OCc6cccc(F)c6)c(Cl)c5)c4c3)o2)CC1
Result: 1.20

Q: Given the molecule COc1cccc(C2c3cc4c(cc3OC(NNc3ccccc3)C2C)OCO4)c1O (stereo not drawn) , write its reported log10 of TGI.
Result: 1.16

Q: Fill in reported log10 of TGI for this entry: O=[N+]([O-])c1cccnc1NCC1(CO)CCCC1
Result: 1.66

Q: Return log10 of TGI (reported value) for this molecule: CC[C@@]1(O)C[C@H](OC2CC(N(C)C)C(OC3CC(O)C(OC4CC(O)C(O)C(C)O4)C(C)O3)C(C)O2)c2c(cc3c(c2O)C(=O)c2c(O)ccc(O)c2C3=O)[C@H]1C(=O)OC (stereo partly drawn)
Result: -0.82

Q: Supply measured log10 of TGI of O=C(NNC(=O)c1ccccc1O)c1ccccc1O in your reply.
Result: 0.56
